- System: PPARg:RXRa 30nM:10nM, anti-RXR (NR concentration 30 nM, RXRa partner concentration 10 nM)
- Measurement notes: PBM binding z-score (relative to random genomic background probes); higher = stronger binding; sequences stand for … in GC…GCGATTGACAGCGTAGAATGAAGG
Outcome: Criterion met for PBM binding z-score of at least 0.4; Criterion not met for anything lower.

[ask] Check the entry `CCTTACGGCTCACTCCAGGTTATAGCATCGGAGT` : does PBM binding z-score equal or exceed 0.4?
[reply] Criterion not met

[ask] Check the entry `CGAACTAGGTCAAGGACATTGAATCTCCGCACGC` : does PBM binding z-score equal or exceed 0.4?
[reply] Criterion met

[ask] Check the entry `CTCGAAAGGTCGTGCTCAGGTGAGCATACCAAAC` : does PBM binding z-score equal or exceed 0.4?
[reply] Criterion met

[ask] Check the entry `TCTTGTTGATCAATAGAGGTTAAGAAAGTGCGCT` : does PBM binding z-score equal or exceed 0.4?
[reply] Criterion met

[ask] Check the entry `TCAGACAGGTTAAGGTAACTCAGGTACGCAGTCG` : does PBM binding z-score equal or exceed 0.4?
[reply] Criterion met

[ask] Check the entry `CTACCAAGGTGATCAAGGTCGTTGATTACTATTC` : does PBM binding z-score equal or exceed 0.4?
[reply] Criterion not met

[ask] Check the entry `CGTCCAAGGTCAAAGGTCTGTGAAGAGATGACGG` : does PBM binding z-score equal or exceed 0.4?
[reply] Criterion met

[ask] Check the entry `ACAGACAGGTGATTGAAGGTAACTCAGCTGGACG` : does PBM binding z-score equal or exceed 0.4?
[reply] Criterion not met

[ask] Check the entry `CAAACTAGGTCAAGAGGTGAAAGTCCGCTTCCCG` : does PBM binding z-score equal or exceed 0.4?
[reply] Criterion met

[ask] Check the entry `CCAGACAGGTGAAAAGTAACTCAGTCTGGTACGC` : does PBM binding z-score equal or exceed 0.4?
[reply] Criterion not met

[ask] Check the entry `TTACCAAGGTGAAAGCTCGTTGATGCACGCCTTG` : does PBM binding z-score equal or exceed 0.4?
[reply] Criterion met

[ask] Check the entry `TCAGACAGGTGAAGTTAACTCAGGTACGCAGTCG` : does PBM binding z-score equal or exceed 0.4?
[reply] Criterion met

[ask] Check the entry `GCTTGTAGATCACGGTTAAGAAAGACTAAGCTAA` : does PBM binding z-score equal or exceed 0.4?
[reply] Criterion not met

[ask] Check the entry `TCTTGTAGATCAACAGGTTAAGAAAGCTGGCCAA` : does PBM binding z-score equal or exceed 0.4?
[reply] Criterion met

[ask] Check the entry `GCTAGTTGGTCAGTAGAAGGTCACACACCGGTCG` : does PBM binding z-score equal or exceed 0.4?
[reply] Criterion not met

[ask] Check the entry `CCTCTTAGTTGACCATAAGGGCAACCGAAGCTCG` : does PBM binding z-score equal or exceed 0.4?
[reply] Criterion not met

[ask] Check the entry `TAGCCTAGGTCATTCAGGGGCCATTATAGAAAGC` : does PBM binding z-score equal or exceed 0.4?
[reply] Criterion not met

[ask] Check the entry `GCTATTAGTTTAAAGGGCAACCGAATGATTCTCG` : does PBM binding z-score equal or exceed 0.4?
[reply] Criterion met

###

- Test system: LXRa:RXRa (NR concentration 270 nM, RXRa partner concentration 90 nM)
- Measurement notes: PBM binding z-score (relative to random genomic background probes); higher = stronger binding; sequences stand for … in GC…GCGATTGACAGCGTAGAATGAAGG
Outcome: YES for PBM binding z-score of at least 3; NO for anything lower.

[ask] Check the entry `CAAACTAGGTCAAGGTGAAAGTCGGTTTGTGCCA` : does PBM binding z-score equal or exceed 3?
[reply] NO

[ask] Check the entry `ATCGAAAGGTCGTGCGGTGAGTATACAGAAAGGC` : does PBM binding z-score equal or exceed 3?
[reply] YES

[ask] Check the entry `CCTACTGGGCCACGAAAGGTCGTTGATTCAGTGA` : does PBM binding z-score equal or exceed 3?
[reply] NO

[ask] Check the entry `CCTAACGGGTCACTGACAGGTTATAGCATTTGGA` : does PBM binding z-score equal or exceed 3?
[reply] YES

[ask] Check the entry `TCTAGCAGGCAAGAGGGTCACTCAAGAGGTACGG` : does PBM binding z-score equal or exceed 3?
[reply] NO

[ask] Check the entry `CCGCCTAGGTCAGGGCCAGTATAGGAGGAACGTT` : does PBM binding z-score equal or exceed 3?
[reply] NO

[ask] Check the entry `TCTTTTAGTTGAAGGGCAACCGACGAGTCCGTTT` : does PBM binding z-score equal or exceed 3?
[reply] NO

[ask] Check the entry `CGTCCAAGGTCGAGGTCAGTGAAAGAGACTCGAA` : does PBM binding z-score equal or exceed 3?
[reply] YES

[ask] Check the entry `GCTTGTAGATCAAGGCTAAGAAAGACTAAGCTAA` : does PBM binding z-score equal or exceed 3?
[reply] NO

[ask] Check the entry `ACTTACGGGTCAACGCGGTTATAGCACGCGTATA` : does PBM binding z-score equal or exceed 3?
[reply] YES

[ask] Check the entry `CGTCCAAGGTCAGTGCTAGGTCAGTGAAAGCATT` : does PBM binding z-score equal or exceed 3?
[reply] YES

[ask] Check the entry `CAAGCTAGGTCACAGAGGTCAAAGTCCGTGCGTA` : does PBM binding z-score equal or exceed 3?
[reply] YES

[ask] Check the entry `TCTCGCAGGACACGAAAGGTCAGAGCTCGACATC` : does PBM binding z-score equal or exceed 3?
[reply] YES

[ask] Check the entry `ATCTCTAGGAAAAGTTCAGTGAAAGATCGATAGA` : does PBM binding z-score equal or exceed 3?
[reply] NO

[ask] Check the entry `CCTAGCAGGCCAGGGACACTCAAGCATTTCGCTT` : does PBM binding z-score equal or exceed 3?
[reply] NO

[ask] Check the entry `CCTATTAGTTGACCATAAGGGCAAGCGAAGCTCG` : does PBM binding z-score equal or exceed 3?
[reply] NO

[ask] Check the entry `CAGCCTAGGGCAGGGCCAGTATAGGAGGAACGTT` : does PBM binding z-score equal or exceed 3?
[reply] NO

[ask] Check the entry `AGAATTAGGTTAAGATCAGGGAAACAGAATACAT` : does PBM binding z-score equal or exceed 3?
[reply] NO

[ask] Check the entry `ACAGACAGGTAATGAAGGTAACTCAGGCTATCAT` : does PBM binding z-score equal or exceed 3?
[reply] NO

[ask] Check the entry `CCAGACAGGTGAGAAGGAAACTCAGCCTCGATTA` : does PBM binding z-score equal or exceed 3?
[reply] NO

[ask] Check the entry `GCAGACAGGTGAAACGCAGGTAACTCTGGGTGGC` : does PBM binding z-score equal or exceed 3?
[reply] NO

###

- Tested on: RXRa DBDmut IVT, anti-RXR (DBD mutation: RXRa K156A/R161A, NR concentration 90 nM)
- Measurement notes: PBM binding z-score (relative to random genomic background probes); higher = stronger binding; sequences stand for … in GC…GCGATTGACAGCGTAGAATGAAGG
Outcome: t for PBM binding z-score of at least 0.5; f for anything lower.

[ask] Check the entry `AAACCAAGGTGATCGTGAGGTCGTTGATACTAAC` : does PBM binding z-score equal or exceed 0.5?
[reply] t

[ask] Check the entry `ATCTCTAGGTAAGACACAGTTCAGTGAAGAACGC` : does PBM binding z-score equal or exceed 0.5?
[reply] t

[ask] Check the entry `CTAACTAGGTCATCCAGGACAGTGAATACATTGA` : does PBM binding z-score equal or exceed 0.5?
[reply] t

[ask] Check the entry `TCTTGTAGATCAATAGAGGTTAAGAGAGTGCGCT` : does PBM binding z-score equal or exceed 0.5?
[reply] t

[ask] Check the entry `CCTACTGGGCCATCAGGTCATTCATATCAACGTT` : does PBM binding z-score equal or exceed 0.5?
[reply] f

[ask] Check the entry `GGAACGAGGGCATTCGAGTTGATATCATGGCGAT` : does PBM binding z-score equal or exceed 0.5?
[reply] t

[ask] Check the entry `AAATGTAGGTTACATCCGGGTCATTCAGGCTATG` : does PBM binding z-score equal or exceed 0.5?
[reply] t

[ask] Check the entry `TCTTGTAGATCAAAGGTTAAGCAAGCCGAAGCCT` : does PBM binding z-score equal or exceed 0.5?
[reply] t

[ask] Check the entry `CCTATTACTTGACCATAAGGGCAACCGAAGCTCG` : does PBM binding z-score equal or exceed 0.5?
[reply] t

[ask] Check the entry `GTACCAAGGTGAGTAGGTCGTTGATGAGTAGGCG` : does PBM binding z-score equal or exceed 0.5?
[reply] f

[ask] Check the entry `CCTTACGGGTCACGAGGTTATAGCTCGACGAGCG` : does PBM binding z-score equal or exceed 0.5?
[reply] t

[ask] Check the entry `CTCGAAAGGTCGTGCTCAGCTGAGTATACCAAAC` : does PBM binding z-score equal or exceed 0.5?
[reply] t

[ask] Check the entry `GCGACTCGGGCATCAGCAGGTTACCATAACTTAA` : does PBM binding z-score equal or exceed 0.5?
[reply] f

[ask] Check the entry `CCAGACAAGTGAGAAGGTAACTCAGCCTCGATTA` : does PBM binding z-score equal or exceed 0.5?
[reply] f

[ask] Check the entry `CGTCAATGTTCAACTAAGGTAACGTAAAGCACGC` : does PBM binding z-score equal or exceed 0.5?
[reply] t

[ask] Check the entry `CGAACTAGGTCATTGACATGACAGTGAATAGTAA` : does PBM binding z-score equal or exceed 0.5?
[reply] t

[ask] Check the entry `ACTATTAGTTGACTTAGGGCAACCGCTACGACGC` : does PBM binding z-score equal or exceed 0.5?
[reply] t

[ask] Check the entry `ACAGACAGGTGAGTGAAGGTTACTCAGCTGGACG` : does PBM binding z-score equal or exceed 0.5?
[reply] f

[ask] Check the entry `TCGAGTAGGTTACCAATGGGGCATACAGCTTTCT` : does PBM binding z-score equal or exceed 0.5?
[reply] f

[ask] Check the entry `CATACAGGGTCAGCTCGGCCAGAGTAGGGACGGC` : does PBM binding z-score equal or exceed 0.5?
[reply] t

[ask] Check the entry `CCTACTGGGCCAAGGTGATTGATCAGTCAAAGCA` : does PBM binding z-score equal or exceed 0.5?
[reply] f

[ask] Check the entry `TCGAGAAGGTTAGTCGGGGCATTCAGCCAACATA` : does PBM binding z-score equal or exceed 0.5?
[reply] t

[ask] Check the entry `TCTAGCAGGCCAGAGGGTCACTCATGAGGTACGG` : does PBM binding z-score equal or exceed 0.5?
[reply] f

[ask] Check the entry `AGAATGAGGTTATTAAGATGAGGGAATTGCGGTC` : does PBM binding z-score equal or exceed 0.5?
[reply] t

[ask] Check the entry `CGAACTAGGTCAGGACAGGACAGTGAAGGATGAT` : does PBM binding z-score equal or exceed 0.5?
[reply] f

[ask] Check the entry `TCTAGCAGGCCAGAGTGTCACTCAAGAGGTACGG` : does PBM binding z-score equal or exceed 0.5?
[reply] f

[ask] Check the entry `CCAGACAGGTGAAAGGTAACTCAGTCTGGTACGC` : does PBM binding z-score equal or exceed 0.5?
[reply] f

[ask] Check the entry `TCATATAGGTATAAGGTGAAAGTCGGTGTGGTAA` : does PBM binding z-score equal or exceed 0.5?
[reply] t

[ask] Check the entry `CCAGGCAGGTGAGAAGGTAACTCAGCCTCGATTA` : does PBM binding z-score equal or exceed 0.5?
[reply] f

[ask] Check the entry `GCCGACAGGTGAAACGCAGGTAACTCAGGGTGGC` : does PBM binding z-score equal or exceed 0.5?
[reply] f

[ask] Check the entry `ATATGTAGGTTATCGGGTGATTCAGTTTGCGCAT` : does PBM binding z-score equal or exceed 0.5?
[reply] t

[ask] Check the entry `ATACCAATGTGATCGTGAGGTCGTTGATACTAAC` : does PBM binding z-score equal or exceed 0.5?
[reply] t

[ask] Check the entry `CAAACTAGGTCAAAGGTCAAATTCGAGCCAACCA` : does PBM binding z-score equal or exceed 0.5?
[reply] t

[ask] Check the entry `ATCTATAGGTAACCAAGTTCAGTGAATGCCGAAC` : does PBM binding z-score equal or exceed 0.5?
[reply] t
